test: STM_H9_CystineISnorm_perc: Stemina devTOX quickPredict H9 human embryonic stem cell (hESC)-based Assay for Cystine (CYSS) Metabolite Biomarker, Normalized (AID 2283713)
Calls of active or inactive are those of the source. How the source made its calls: active means hit-call score of the fitted dose curve at least 0.9, where 1 is the maximum; inactive means score below 0.9.
One label from this list, please: active, inactive

Recorded results for 4 molecules are shown here.
molecule: CC(O)CO (configuration not stated)
cat: active
//
molecule: c1ccc2c(c1)ccc1ccccc12
cat: active
//
molecule: C#C[C@]1(O)CC[C@H]2[C@@H]3CCC4=CC(=O)CC[C@@H]4[C@H]3CC[C@@]21C
cat: active
//
molecule: N#C[C@@H]1CC(F)(F)CN1C(=O)CNC1CC2CCC(C1)N2c1ncccn1 (some centres not stated)
cat: inactive

Moving on to another molecule below.
Status in this test for CCCCCCCCCCCCc1ccccc1S(=O)(=O)O ?
inactive
